assayed_target: Retinoic acid receptor gamma (Homo sapiens)
Sequence (P13631 whole entry): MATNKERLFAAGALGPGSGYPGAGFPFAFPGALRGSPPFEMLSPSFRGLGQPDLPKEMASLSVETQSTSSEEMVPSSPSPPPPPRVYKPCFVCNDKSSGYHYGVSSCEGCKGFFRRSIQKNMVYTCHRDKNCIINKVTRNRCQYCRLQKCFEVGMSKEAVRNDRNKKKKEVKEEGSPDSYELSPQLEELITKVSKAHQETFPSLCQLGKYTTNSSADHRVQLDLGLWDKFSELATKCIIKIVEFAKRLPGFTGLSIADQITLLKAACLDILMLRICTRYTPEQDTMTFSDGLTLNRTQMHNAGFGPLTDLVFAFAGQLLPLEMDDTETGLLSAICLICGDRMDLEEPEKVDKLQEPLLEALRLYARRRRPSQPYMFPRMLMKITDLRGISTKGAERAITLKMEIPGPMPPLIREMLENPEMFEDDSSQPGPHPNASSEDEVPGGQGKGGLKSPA
method: Transactivation potency for Retinoic acid receptor gamma
pEC50: −log10 of the molar value.
assay_endpoint: pEC50

[1] CC1(C)CCNc2cc(C#Cc3ccc(C(=O)O)cc3)ccc21
[2] CC1(C)CC(=O)Nc2cc(C#Cc3ccc(C(=O)O)cc3)ccc21
[3] CC(C)N1C(=O)CC(C)(C)c2ccc(C#Cc3ccc(C(=O)O)cc3)cc21
In: Order the records, beginning with the lowest pEC50 and ending with the highest. Record the ranking as a list of labels in the requested order.
Out: 2, 1, 3
(2: 6.70, 1: 7.27, 3: 7.70)

----------
Target protein (sequence): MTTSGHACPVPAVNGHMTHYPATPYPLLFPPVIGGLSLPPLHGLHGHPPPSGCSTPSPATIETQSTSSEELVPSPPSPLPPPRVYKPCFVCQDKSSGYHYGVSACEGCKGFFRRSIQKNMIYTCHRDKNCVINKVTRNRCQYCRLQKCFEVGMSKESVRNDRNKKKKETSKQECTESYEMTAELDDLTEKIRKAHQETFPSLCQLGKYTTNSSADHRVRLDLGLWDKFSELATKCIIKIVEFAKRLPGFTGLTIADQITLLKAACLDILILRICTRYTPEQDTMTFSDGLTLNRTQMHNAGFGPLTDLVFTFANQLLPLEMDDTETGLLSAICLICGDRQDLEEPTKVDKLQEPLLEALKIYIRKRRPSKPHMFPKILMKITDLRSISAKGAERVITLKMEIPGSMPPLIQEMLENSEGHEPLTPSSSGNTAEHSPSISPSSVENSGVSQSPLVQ
assay_endpoint: Kd (nM)
Record the value in nM, omitting the unit from your answer.

In: Quick one: Kd for CC(C)N1CCC(C)(C)c2cc(C#Cc3ccc(C(=O)O)cc3)ccc21 ?
Out: 60

----------
assayed_target: UniProt P10826
method: Transactivation potency for Retinoic acid receptor beta
assay_endpoint: EC50 (nM)

> print(dat)
                              record.smiles  units.text  numeric.readout
1  CC(C)N1CCC(C)(C)c2ccc(C#Cc3ccc(C(=O)O)cc3)cc21          nM                3
2  CC(C)N1C(=O)CC(C)(C)c2cc(C#Cc3ccc(C(=O)O)cc3)ccc21          nM                4

[A] CC1(C)CC(=O)Nc2cc(C#Cc3ccc(C(=O)O)cc3)ccc21
[B] CC(C)N1C(=O)CC(C)(C)c2ccc(C#Cc3ccc(C(=O)O)cc3)cc21
In: Input pair: A , B . Output: entry with lower EC50. Which one? Tell me its label.
Out: B
(B: 4 nM, A: 1000 nM)

[A] CC(C)N1CCC(C)(C)c2cc(C#Cc3ccc(C(=O)O)cc3)ccc21
[B] CCCCCCCN1CCC(C)(C)c2cc(C#Cc3ccc(C(=O)O)cc3)ccc21
[C] CC1(C)CCNc2cc(C#Cc3ccc(C(=O)O)cc3)ccc21
[D] CC1(C)CCNc2ccc(C#Cc3ccc(C(=O)O)cc3)cc21
In: Ascending by EC50, please: list the molecules accordingly. Output spec: a listing of the labels in the requested order.
Out: A, C, D, B
